inhibition at 4 µM overview
Biological target: serotonin receptor (5HT3) (Mus musculus)
Construct: Full-length cDNAs for mosquito (Anopheles gambiae) odorant receptor; expressed in transfected cells
Sequence (P23979 24-489): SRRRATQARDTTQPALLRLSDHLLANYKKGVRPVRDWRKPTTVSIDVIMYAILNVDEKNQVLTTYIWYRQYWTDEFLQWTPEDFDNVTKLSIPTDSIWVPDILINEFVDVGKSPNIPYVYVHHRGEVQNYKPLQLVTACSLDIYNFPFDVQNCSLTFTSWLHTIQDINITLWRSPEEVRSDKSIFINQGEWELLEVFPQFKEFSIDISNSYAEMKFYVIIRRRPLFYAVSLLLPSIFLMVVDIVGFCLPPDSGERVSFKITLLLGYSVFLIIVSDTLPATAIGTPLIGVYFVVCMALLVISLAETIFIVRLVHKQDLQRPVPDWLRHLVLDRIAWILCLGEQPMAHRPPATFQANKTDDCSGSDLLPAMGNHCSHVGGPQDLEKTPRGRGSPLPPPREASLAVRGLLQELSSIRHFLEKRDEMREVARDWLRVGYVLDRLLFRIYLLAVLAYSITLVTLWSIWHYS
Assay: Ca2+-imaging of stable Flip-In T-Rex cell line 5HT3
Type: cell-based
Conditions: compound applied at 4 μM; read-out: Percent Inhibition 5HT3
quantityMeasured: inhibition at 4 µM

{"compound": "CCn1c(C)c(C(=O)CN(CC2CCCO2)C(=O)C2C[C@H]2c2ccccc2)c(C)c1C(=O)OC (some centres unmarked)", "measurementTarget": "serotonin receptor (5HT3) (Mus musculus)", "quantityMeasured": "inhibition at 4 µM", "measured": "26 to 50%"}
{"compound": "COc1ccc(-c2nnc(SCc3ccc(C#N)cc3)n2-c2ccc(C)cc2)cc1", "measurementTarget": "serotonin receptor (5HT3) (Mus musculus)", "quantityMeasured": "inhibition at 4 µM", "measured": "26 to 50%"}
{"compound": "Cc1cc(C)c2c(c1C(=O)N1CCC3(CC1)C(=O)NCN3c1ccccc1)CC(C)(C)C2=O", "measurementTarget": "serotonin receptor (5HT3) (Mus musculus)", "quantityMeasured": "inhibition at 4 µM", "measured": "26 to 50%"}
{"compound": "COCCCN(CC(=O)N1CCc2sccc2C1COc1cccc(OC)c1)C(=O)Cc1ccccc1 (centres unmarked)", "measurementTarget": "serotonin receptor (5HT3) (Mus musculus)", "quantityMeasured": "inhibition at 4 µM", "measured": "< 25%"}
{"compound": "O=C1CN(S(=O)(=O)c2c(F)cc(F)cc2F)CC2c3cccc(F)c3CCN12 (centres unmarked)", "measurementTarget": "serotonin receptor (5HT3) (Mus musculus)", "quantityMeasured": "inhibition at 4 µM", "measured": "26 to 50%"}
{"compound": "COc1cc(OC)cc(C2NC(=O)N(C)C3=C2C(=O)N(C2CCCCC2)C3)c1 (centres unmarked)", "measurementTarget": "serotonin receptor (5HT3) (Mus musculus)", "quantityMeasured": "inhibition at 4 µM", "measured": "26 to 50%"}
{"compound": "Cc1ccc(CN(CCc2ccccc2)C(=O)CN(C(=O)NC(C)(C)C)C(C)C)o1", "measurementTarget": "serotonin receptor (5HT3) (Mus musculus)", "quantityMeasured": "inhibition at 4 µM", "measured": "< 25%"}
{"compound": "COCCCN(CC(=O)N1CCc2sccc2C1c1ccc(OC)cc1)C(=O)C(C)(C)CCl (centres unmarked)", "measurementTarget": "serotonin receptor (5HT3) (Mus musculus)", "quantityMeasured": "inhibition at 4 µM", "measured": "51 to 74%"}

---

Biological target: Or47a/Or83b (Drosophila melanogaster, UniProt P81921+Q9VNB5)
Construct: Full-length cDNAs for mosquito (Anopheles gambiae) odorant receptor (OR1, OR2, OR7, OR8, OR28), and fly (Drosophila melanogaster) odorant receptor (Or47a, Or83b); expressed in transfected cells
Sequence (P81921 1-385): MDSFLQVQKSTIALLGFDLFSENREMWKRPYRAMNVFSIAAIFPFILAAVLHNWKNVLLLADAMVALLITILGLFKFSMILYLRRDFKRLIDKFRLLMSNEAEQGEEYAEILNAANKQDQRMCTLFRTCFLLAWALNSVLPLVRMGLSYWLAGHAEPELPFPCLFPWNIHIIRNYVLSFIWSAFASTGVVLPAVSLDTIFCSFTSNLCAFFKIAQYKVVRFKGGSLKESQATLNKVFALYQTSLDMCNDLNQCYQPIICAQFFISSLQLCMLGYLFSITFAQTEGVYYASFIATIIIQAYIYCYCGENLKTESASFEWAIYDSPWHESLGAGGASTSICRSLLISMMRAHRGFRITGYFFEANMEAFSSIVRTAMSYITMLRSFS
Sequence (Q9VNB5 1-486): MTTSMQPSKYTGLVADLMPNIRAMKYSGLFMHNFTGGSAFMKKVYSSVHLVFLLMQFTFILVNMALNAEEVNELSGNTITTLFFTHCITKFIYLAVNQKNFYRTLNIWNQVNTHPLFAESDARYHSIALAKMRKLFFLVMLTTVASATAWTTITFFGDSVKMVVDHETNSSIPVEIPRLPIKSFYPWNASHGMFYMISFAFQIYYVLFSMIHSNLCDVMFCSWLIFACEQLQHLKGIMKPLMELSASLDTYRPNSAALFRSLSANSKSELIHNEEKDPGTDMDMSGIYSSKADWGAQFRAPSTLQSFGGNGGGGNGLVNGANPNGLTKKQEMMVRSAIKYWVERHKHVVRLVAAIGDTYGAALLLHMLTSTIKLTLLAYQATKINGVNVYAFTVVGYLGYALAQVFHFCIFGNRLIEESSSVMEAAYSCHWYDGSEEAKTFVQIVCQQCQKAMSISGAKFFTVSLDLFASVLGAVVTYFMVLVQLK
Assay: Ca2+-imaging of stable Flip-In T-Rex cell line Or47a/Or83b
Type: cell-based
Conditions: compound applied at 4 μM; read-out: Percent Inhibition OR47a OR83b
quantityMeasured: inhibition at 4 µM

{"molecule": "Cc1ccccc1C(=O)N[C@@H]1CCCCC1NC(=O)C1CCCN(S(=O)(=O)c2cc(Cl)ccc2Cl)C1 (some centres unmarked)", "quantityMeasured": "inhibition at 4 µM", "measured": "26 to 50%"}
{"molecule": "O=C(CCC1CCN(C(=O)c2cccc(-n3cccn3)c2)CC1)Nc1ccccc1", "quantityMeasured": "inhibition at 4 µM", "measured": "51 to 74%"}
{"molecule": "Cc1ccc(CN(CCc2ccccc2)C(=O)CN(C(=O)NC(C)(C)C)C(C)C)o1", "quantityMeasured": "inhibition at 4 µM", "measured": "26 to 50%"}
{"molecule": "COCCN(Cc1nccn1Cc1c(F)cccc1Cl)C(=O)CCc1ccccc1", "quantityMeasured": "inhibition at 4 µM", "measured": "26 to 50%"}
{"molecule": "COCCCN(Cc1c(-c2ccccc2)noc1N1CCC(C)CC1)C(=O)c1ccccc1F", "quantityMeasured": "inhibition at 4 µM", "measured": "51 to 74%"}
{"molecule": "Cc1ccc(CN(Cc2ccc(F)cc2)C(=O)CN(C(=O)NC(C)(C)C)C2CC2)s1", "quantityMeasured": "inhibition at 4 µM", "measured": "26 to 50%"}
{"molecule": "COc1ccc(-c2cc(-c3ccccc3)n(C(=O)CN3CCN(Cc4ccccc4)CC3)n2)cc1", "quantityMeasured": "inhibition at 4 µM", "measured": "51 to 74%"}
{"molecule": "COCCNC(=O)c1ccc(CSc2nnc(-c3ccc(C)cc3)n2-c2ccccc2C)cc1", "quantityMeasured": "inhibition at 4 µM", "measured": "26 to 50%"}
